Ref: the supplement of paper PMC6757056

B1: library; a variant is named by its letters at N, in order (parent)
chain: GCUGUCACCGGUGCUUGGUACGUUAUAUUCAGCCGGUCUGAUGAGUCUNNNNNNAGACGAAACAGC

Variants of: B1
Test: normalized RNA/DNA level without ligand (relative to sTRSVctl = 100) (log10 (% of sTRSVctl)); HEK293T overexpressing SLC46A1; higher = less ribozyme self-cleavage, higher mRNA level
Settings: without (6R,S)-folinic acid; ligand present: no
Values of normalized RNA/DNA level without ligand (log10) greater than or equal to 2 map to y; values below map to n.

Some entries whose results are on file:
# mutation-annotation, assigned-class
measured = [
    ("AUCGUG", "n"),
    ("UACAUC", "y"),
    ("UUUAUG", "n"),
]

Request: hey, is normalized RNA/DNA level without ligand (log10) for this one >= 2? UUGAAG
Result: n

Request: Does AACUUC have a reported normalized RNA/DNA level without ligand (log10) of at least 2?
Result: y

Request: Is it the case that GUAGGG has normalized RNA/DNA level without ligand (log10) reaching or exceeding 2?
Result: n

Request: Item UUACUG with normalized RNA/DNA level without ligand (log10) of 2 or above?
Result: n

Request: Decide: normalized RNA/DNA level without ligand (log10) of GGCUAG >= 2?
Result: y

Request: API: above_or_equal(metric=normalized RNA/DNA level without ligand (log10), cutoff=2) for item AACAGU
Result: n

Request: Evaluate CAUAGG : normalized RNA/DNA level without ligand (log10) at minimum 2?
Result: n
